target: purified recombinant α-2,3-sialyltransferase (Neisseria meningitidis serogroup B, UniProt P72097); construct: made in house; host or cells: E. coli BMH71-18/pNST-18; test: Determination of kinetic constants with APTS-labelled acceptors; type: biochemical; conditions: apparent; APTS-labelled acceptor, CMP-Neu5Ac 200 μM
Sequence (P72097 2-371): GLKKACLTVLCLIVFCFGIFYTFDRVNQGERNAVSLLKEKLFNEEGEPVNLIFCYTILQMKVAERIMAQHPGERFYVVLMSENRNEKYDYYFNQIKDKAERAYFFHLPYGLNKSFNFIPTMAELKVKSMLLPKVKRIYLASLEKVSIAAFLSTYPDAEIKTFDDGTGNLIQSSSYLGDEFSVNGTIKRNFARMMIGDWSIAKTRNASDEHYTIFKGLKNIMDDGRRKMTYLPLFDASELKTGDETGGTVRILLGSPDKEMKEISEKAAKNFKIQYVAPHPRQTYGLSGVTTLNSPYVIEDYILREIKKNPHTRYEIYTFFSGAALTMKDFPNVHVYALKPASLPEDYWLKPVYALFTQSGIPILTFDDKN
Kindly supply the reported kcat IKm values for the records listed here.
Answers are plain numbers, in min⁻¹ mM⁻¹.

Illustrative cases are given below, each with its answer.
inputSmiles	resultUnits	measuredValue
CC(=O)N[C@H]1[C@H](O[C@@H]([C@H](O)[C@H](CNc2cc(S(=O)(=O)O)c3ccc4c(S(=O)(=O)O)cc(S(=O)(=O)O)c5ccc2c3c54)NC(C)=O)[C@H](O)CO)O[C@H](CO)[C@@H](O[C@@H]2O[C@H](CO)[C@H](O)[C@H](O)[C@H]2O)[C@@H]1O	min⁻¹ mM⁻¹	105
O=S(=O)(O)c1cc(NC[C@H](O)[C@@H](O)[C@H](O[C@@H]2O[C@H](CO)[C@H](O[C@H]3O[C@H](CO)[C@H](O)[C@H](O)[C@H]3O)[C@H](O)[C@H]2O)[C@H](O)CO)c2ccc3c(S(=O)(=O)O)cc(S(=O)(=O)O)c4ccc1c2c34	min⁻¹ mM⁻¹	5.6
O=S(=O)(O)c1cc(NC[C@H](O)[C@@H](O)[C@H](O[C@@H]2O[C@H](CO)[C@H](O)[C@H](O)[C@H]2O)[C@H](O)CO)c2ccc3c(S(=O)(=O)O)cc(S(=O)(=O)O)c4ccc1c2c34	min⁻¹ mM⁻¹	22

We next turn to a different compound, shown below.
[in] Find the recorded kcat IKm belonging to `O=S(=O)(O)c1cc(NC[C@H](O)[C@@H](O)[C@H](O)[C@H](O)CO[C@H]2O[C@H](CO)[C@H](O)[C@H](O)[C@H]2O)c2ccc3c(S(=O)(=O)O)cc(S(=O)(=O)O)c4ccc1c2c34` and report it.
[out] 31
